Provide the recorded growth for the entries that follow.
- Test system: MDA-MB-231 breast
- protocol text: NCI-60 one-dose screen, 48 h (100 = growth as untreated, 0 = no growth, -100 = all killed)
- condition: 10 µM unless noted
The panel holds about 83,000 compounds, 20% with a hit somewhere; the sample as a whole holds those more often.
Answers are plain numbers, in %.

# example entries with known answers
>  <molecule>
COc1cc2nc(C(=O)N3CCCCC3)cc(Nc3ccccc3)c2cc1OC

>  <obs value>
88.6

$$$$
>  <molecule>
CCCCOc1c(N)cccc1C(=O)OCCN(CC)CC

>  <obs value>
99.3

$$$$
>  <molecule>
COc1cc(NS(=O)(=O)c2ccc(N)cc2)ncn1

>  <obs value>
94.7

$$$$
>  <molecule>
Cc1ccc(-c2cn3cc([N+](=O)[O-])ccc3n2)cc1

>  <obs value>
79.1

$$$$
>  <molecule>
Cc1ccc(N(CC2=NCCN2)c2cccc(O)c2)cc1

>  <obs value>
113

$$$$

Give me growth for each of these molecules, listed below.
1. CCNc1cc(S(=O)(=O)O)ccc1C
2. COc1ccc(-c2cc(-c3nnc(SC/C(=N\O)c4ccccc4)n3-c3ccccc3)c3ccccc3n2)cc1
3. COc1ccc(-c2c(C#N)cnc(N)c2-c2nc3cc(C)c(C)cc3[nH]2)cc1
4. CC1(C)Cc2c(Br)c(Br)c(Br)c(OCC(O)CN3CCN(c4ccccn4)CC3)c2O1 (centres undefined)

1. 102
2. 103
3. 53.4
4. 57.4

====

- System: RPMI-8226 leukemia
- protocol text: NCI-60 one-dose screen, 48 h (100 = growth as untreated, 0 = no growth, -100 = all killed)
- condition: 10 µM unless noted
- Method: Growth inhibition of the RPMI-8226 human tumor cell line is measured as a screen for anti-cancer activity. Cells are grown in 96 well plates and exposed to the test compound for 48 hours. Compounds are tested at a single concentration, which is 10^-5 M for most compounds. The reported endpoint is percent growth (GI% or GIPRCNT), where numbers from 0 - 100% represent growth inhibition, and numbers from -100% - 0 represent cell death. For example, a value of 40 represents 60% growth inhibition. […]
Compounds without any hit were thinned out: in the full panel of roughly 83,000, 20% have a hit.
observable: growth (%)
One number for each entry, in %.

>  <compound>
CCc1cccc(-c2ccccc2)c1

>  <test system>
RPMI-8226 leukemia

>  <obs value>
80.5

$$$$

Give me growth for each of these compounds, listed below.
1. Nc1ncnc2c1ccn2-c1cccc(NC(=O)c2cccc(C(F)(F)F)c2)c1
2. Cc1cccc(Cc2cnc(NC(=O)CCc3ccc(C)o3)s2)c1
3. Cl[C@@H]1CCO[C@H](c2cc3ccccc3c3ccccc23)C1

52.9
5.07
83.3

Give me growth for each of these compounds, listed below.
1. COc1cc(NC(C)CCCN2C(=O)c3ccccc3C2=O)c2ncccc2c1OC (centres undefined)
2. O=C(O)c1ccc(-c2nn(-c3ccc(C(=O)O)cc3)cc2/C=N/Nc2c(F)c(F)cc(F)c2F)cc1
3. COc1ccc(/C=C/C(=O)/C=C(/C=C/c2ccc(OC)c(OC)c2OC)OB(F)F)c(OC)c1OC
4. CO[C@H]1/C=C/C=C/C=C/C[C@H](OC(=O)[C@@H](C)NC(=O)C2CCCCC2)[C@H](C)[C@@H](O)/C(C)=C\CCC2=CC(=O)C=C(NC(=O)C1)C2=O
5. COc1ccc(NC(=O)COCCOCCNC[C@@H]2C(=O)O[C@H]3[C@H]2CC/C(COC(=O)OC/C2=C/CC[C@@]4(C)O[C@H]4[C@H]4OC(=O)[C@@H](CN(C)C)[C@@H]4CC2)=C\CC[C@@]2(C)O[C@@H]32)c(O)c1C(N)=O
6. COc1ccc(/C(=C/c2cc(OC)c(OC)c(OC)c2)[N+](=O)[O-])cc1
7. O=C(O)c1cc2ccccc2cc1Nc1ccccc1

[55.5, 103, 2.74, -26.5, 38.4, -18.6, 78.4]
